Biological target: human GLP-1 receptor (human, UniProt P43220 24-463)
Assay: cell-based or functional assay
Bridges are numbered along the chain shown (N, C = ends). Where no end group is shown, it is not given here. [ ]: non-standard residue; d: D form. The star is where a group is joined. Acetyl(2-(4-imidazolyl)) = O=C(Cc1c[nH]cn1)*; Aib = CC(C)(N)C(=O)O
endpoint: in vitro Activity Compared to Native Peptide (%), vs GLP-1
Answer with a number only, understood to be in %.

- binder: "Y[Aib]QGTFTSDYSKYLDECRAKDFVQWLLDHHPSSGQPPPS (bridge 16-20; not fully specified (C-terminus)) [triple agonist of SEQ ID NO: 66]"
  experimental value: 15.8
- binder: "[Acetyl(2-(4-imidazolyl))][Aib]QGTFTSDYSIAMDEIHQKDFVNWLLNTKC (bridge 16-20; not fully specified (C-terminus)) [triple agonist of SEQ ID NO: 94]"
  experimental value: 0.5

Using the record for [Acetyl(2-(4-imidazolyl))]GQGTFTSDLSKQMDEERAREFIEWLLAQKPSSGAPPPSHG-NH2 [triple agonist of SEQ ID NO: 17] , state its measured in vitro Activity Compared to Native Peptide (%), vs GLP-1.
0.2
